B1: NLV3 TCR beta chain (CDR3β only) (parent)
chain: ASSPTGGSPSPLH

# Variants of: B1
# PROTOCOL_DESCRIPTION: T-Switch: Jurkat TCRβ−/− cells expressing a CDR3 saturation-mutagenesis library, stained with two peptide-HLA-A*02:01 tetramers (original and novel peptide) plus anti-CD3, FACS-sorted into four gates, gDNA sequenced
# RECORDED_CONDITIONS: with both tetramers (double-negative gate, binds neither): HLA-A*02:01 with … and with …, tetramers 1 µg/mL, 30 min on ice, SP, DP and SW gates expanded about 10 days between rounds ('two to three rounds of selection' in the Methods), gate DN: OPPOSITE: higher = more of the variant in the gate that binds neither peptide = LESS binding (or no expression; inferred). Fold enrichment of the CDR3 variant in one FACS gate of a two-tetram, unresolved parent, parent is a CDR3 fragment, scale: fold enrichment, numbering: sequential-on-construct, sequence starts at 1
Label scheme, based on enrichment: low = under 0.6, intermediate = from 0.6 up to 1, high = 1 and over

# MUTATION_KEY, LABEL
measured = [
    ("[…] (CDR3 as printed); P9N derived by comparing it with the table's wild-type CDR3 ASSPTGGSPSPLH", "high"),
    ("[…] (CDR3 as printed); S3G derived by comparing it with the table's wild-type CDR3 ASSPTGGSPSPLH", "low"),
    ("[…] (CDR3 as printed); P4I derived by comparing it with the table's wild-type CDR3 ASSPTGGSPSPLH", "intermediate"),
    ("[…] (CDR3 as printed); P4W derived by comparing it with the table's wild-type CDR3 ASSPTGGSPSPLH", "high"),
    ("[…] (CDR3 as printed); A1G derived by comparing it with the table's wild-type CDR3 ASSPTGGSPSPLH", "low"),
    ("[…] (CDR3 as printed); P11I derived by comparing it with the table's wild-type CDR3 ASSPTGGSPSPLH", "high"),
    ("[…] (CDR3 as printed); G6L derived by comparing it with the table's wild-type CDR3 ASSPTGGSPSPLH", "intermediate"),
    ("[…] (CDR3 as printed); S2F derived by comparing it with the table's wild-type CDR3 ASSPTGGSPSPLH", "low"),
    ("[…] (CDR3 as printed); P11G derived by comparing it with the table's wild-type CDR3 ASSPTGGSPSPLH", "high"),
    ("[…] (CDR3 as printed); P4C derived by comparing it with the table's wild-type CDR3 ASSPTGGSPSPLH", "intermediate"),
    ("[…] (CDR3 as printed); L12A derived by comparing it with the table's wild-type CDR3 ASSPTGGSPSPLH", "high"),
    ("[…] (CDR3 as printed); H13L derived by comparing it with the table's wild-type CDR3 ASSPTGGSPSPLH", "intermediate"),
    ("[…] (CDR3 as printed); G6H derived by comparing it with the table's wild-type CDR3 ASSPTGGSPSPLH", "high"),
    ("[…] (CDR3 as printed); S3N derived by comparing it with the table's wild-type CDR3 ASSPTGGSPSPLH", "low"),
]

Ref: paper PMC13397619
